B1: KIAA1614 peptide 568-583 (uncharacterized protein KIAA1614), 16-mer library wild type / USP8 rhodanese domain (ubiquitin carboxyl-terminal hydrolase 8, residues 174-317) (parent)
chain 1: GMERVLGGLSSPLRLL
chain 2: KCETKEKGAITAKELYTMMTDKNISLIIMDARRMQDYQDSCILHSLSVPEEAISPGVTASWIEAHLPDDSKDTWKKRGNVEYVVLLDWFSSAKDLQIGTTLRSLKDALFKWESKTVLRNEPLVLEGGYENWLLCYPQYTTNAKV

Variants of: B1
Assay: peptide-phage display deep mutational scan (M13, 16-mer library, displayed with a C-terminal GGGSG linker encoded by the 3' flank) selected against the GST-tagged USP8 rhodanese domain, four rounds; NGS counts summed over selection …
Conditions: with USP8 rhodanese domain (ubiquitin carboxyl-terminal hydrolase 8, residues 174-317), 10 µg GST-bait on MaxiSorp, pre-cleared on GST, 2 h at 4 °C, five washes with 0.05% Tween 20 in PBS, not graded, scale: average over two replicas of the peptide's fractional NGS count
Measured metric: screen value

Would you please look over these solved cases?
>>> df
                            input_sequence  reported_value
0  chain 1 GMERVLGGLSSPLRVL [chain 1 L15V]        1.26e-05
1   chain 1 GMERVLGNLSSPLRLL [chain 1 G8N]        1.26e-05
2   chain 1 GMVRVLGGLSSPLRLL [chain 1 E3V]        1.26e-05
3  chain 1 GMERVLGGLSSPWRLL [chain 1 L13W]        0.000724
4   chain 1 PMERVLGGLSSPLRLL [chain 1 G1P]         0.00104

P = chain 1 GMERVLGGLSSPLSLL [chain 1 R14S]
Q = chain 1 GMERVLGGLSYPLRLL [chain 1 S11Y]
R = chain 1 GMERVLGGISSPLRLL [chain 1 L9I]
S = chain 1 GMERQLGGLSSPLRLL [chain 1 V5Q]
Q: Hi! Can you put these in order of screen value, lowest number first? Return the labels ranked in the requested order, please.
Ans: Q, R, P, S

a = chain 1 GMERVLGGLSSPLRIL [chain 1 L15I]
b = chain 1 TMERVLGGLSSPLRLL [chain 1 G1T]
Q: Which has the higher screen value, a or b ? # answer = label of selected item
Ans: b

A = chain 1 GMERVGGGLSSPLRLL [chain 1 L6G]
B = chain 1 GMQRVLGGLSSPLRLL [chain 1 E3Q]
Q: Thinking about recorded screen value values, which is higher, A or B ? In your reply, give the label of the chosen option.
Ans: B

a = chain 1 GMERVLGGKSSPLRLL [chain 1 L9K]
b = chain 1 GMERVLIGLSSPLRLL [chain 1 G7I]
Q: Out of a and b , name the one with the higher screen value. Please identify the chosen entry by its label.
Ans: b
(b: 0.000523, a: 9.69e-05)
